systemName: huCTLA4 (Homo sapiens, UniProt P16410)
Sequence (P16410 36-223): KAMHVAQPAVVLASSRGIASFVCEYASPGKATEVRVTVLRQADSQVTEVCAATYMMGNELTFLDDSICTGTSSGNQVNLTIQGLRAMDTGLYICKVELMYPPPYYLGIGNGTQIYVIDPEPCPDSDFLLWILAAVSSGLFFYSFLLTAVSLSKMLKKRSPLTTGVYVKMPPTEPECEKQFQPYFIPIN
experimentDescription: Flow binding to CHO cells stably expressing CTLA4
Design: huCTLA4 and huPD-L1, full-length mammalian surface expression constructs were generated; expressed in transfected cells; host or cells: CHO cells, lentiviral transduction, sorted to >98% purity
conditionNotes: Table E11; CHO cells stably expressing CTLA4; 33.3 nM
Protocol: Binding of selected immunomodulatory fusion proteins to cognate binding partners was assessed. […] Cells were sorted in a Bio-Rad S3 Cell Sorter (Bio-Rad Corp., USA) to >98% purity. […] For staining and analysis by flow cytometry, 100,000 cells of appropriate transfected cells were plated in 96-well round bottom plates. […] Cells were then washed twice with 150 μL/well stain buffer, fixed in 2% formaldehyde/PBS, and analyzed on Intellicyt flow cytometer (Intellicyt Corp., USA). […]
Field: CTLA4 MFI at 33.3 nM. Provide a value for each of the molecules that follow.

-- ask Name the reported CTLA4 MFI at 33.3 nM value associated with the molecule H18Y/E35D/M47V/V68M/L85M (protein, UniProt P33681 35-288, looked up, variant H18Y E35D M47V V68M L85M) T-lymphocyte activation …: VIHVTKEVKEVATLSCGYNVSVEELAQTRIYWQKDKKMVLTMMSGDVNIWPEYKNRTIFDITNNLSIMILALRPSDEGTYECVVMKYEKDAFKREHLAEVTLSVKADFPTPSISDFEIPTSNIRRIICSTSGGFPEPHLSWLENGEELNAINTTVSQDPETELYAVSSKLDFNMTTNHSFMCLIKYGHLRVNQTFNWNTTKQEHFPDNLLPSWAITLISVNGIFVICCLTYCFAPRCRERRRNERLRRESVRPV
-- reply 18367

-- ask Recorded CTLA4 MFI at 33.3 nM for H18Y/E35D/M47L/V68M/E95V/L97Q (protein, UniProt P33681 35-288, looked up, variant H18Y E35D M47L V68M E95V L97Q) T-lymphocyte activation …: VIHVTKEVKEVATLSCGYNVSVEELAQTRIYWQKDKKMVLTMMSGDLNIWPEYKNRTIFDITNNLSIMILALRPSDEGTYECVVLKYEKDAFKRVHQAEVTLSVKADFPTPSISDFEIPTSNIRRIICSTSGGFPEPHLSWLENGEELNAINTTVSQDPETELYAVSSKLDFNMTTNHSFMCLIKYGHLRVNQTFNWNTTKQEHFPDNLLPSWAITLISVNGIFVICCLTYCFAPRCRERRRNERLRRESVRPV , please?
-- reply 20475

-- ask Item H18Y/E35D/V68M/A71G/R94Q/E95V (protein, UniProt P33681 35-288, looked up, variant H18Y E35D V68M A71G R94Q E95V, Fc fusion) T-lymphocyte activation …: VIHVTKEVKEVATLSCGYNVSVEELAQTRIYWQKDKKMVLTMMSGDMNIWPEYKNRTIFDITNNLSIMILGLRPSDEGTYECVVLKYEKDAFKQVHLAEVTLSVKADFPTPSISDFEIPTSNIRRIICSTSGGFPEPHLSWLENGEELNAINTTVSQDPETELYAVSSKLDFNMTTNHSFMCLIKYGHLRVNQTFNWNTTKQEHFPDNLLPSWAITLISVNGIFVICCLTYCFAPRCRERRRNERLRRESVRPV has what recorded CTLA4 MFI at 33.3 nM?
-- reply 18281

-- ask Param item = T13R/Q33R/E35D/M38I/M47L/V68M/L85M (protein, UniProt P33681 35-288, looked up, variant T13R Q33R E35D M38I M47L V68M L85M) T-lymphocyte activation …: VIHVTKEVKEVARLSCGHNVSVEELAQTRIYWRKDKKIVLTMMSGDLNIWPEYKNRTIFDITNNLSIMILALRPSDEGTYECVVMKYEKDAFKREHLAEVTLSVKADFPTPSISDFEIPTSNIRRIICSTSGGFPEPHLSWLENGEELNAINTTVSQDPETELYAVSSKLDFNMTTNHSFMCLIKYGHLRVNQTFNWNTTKQEHFPDNLLPSWAITLISVNGIFVICCLTYCFAPRCRERRRNERLRRESVRPV ; retrieve measured CTLA4 MFI at 33.3 nM.
-- reply 22011

-- ask Given the molecule T13R/Q33L/E35D/M47V/T62S/V68M/L85M (protein, UniProt P33681 35-288, looked up, variant T13R Q33L E35D M47V T62S V68M L85M) T-lymphocyte activation …: VIHVTKEVKEVARLSCGHNVSVEELAQTRIYWLKDKKMVLTMMSGDVNIWPEYKNRTIFDISNNLSIMILALRPSDEGTYECVVMKYEKDAFKREHLAEVTLSVKADFPTPSISDFEIPTSNIRRIICSTSGGFPEPHLSWLENGEELNAINTTVSQDPETELYAVSSKLDFNMTTNHSFMCLIKYGHLRVNQTFNWNTTKQEHFPDNLLPSWAITLISVNGIFVICCLTYCFAPRCRERRRNERLRRESVRPV , what is its reported CTLA4 MFI at 33.3 nM?
-- reply 105

-- ask Need CTLA4 MFI at 33.3 nM, item E24D/E35D/M47L/V68M/E95V/L97Q (protein, UniProt P33681 35-288, looked up, variant E24D E35D M47L V68M E95V L97Q) T-lymphocyte activation …: VIHVTKEVKEVATLSCGHNVSVEDLAQTRIYWQKDKKMVLTMMSGDLNIWPEYKNRTIFDITNNLSIMILALRPSDEGTYECVVLKYEKDAFKRVHQAEVTLSVKADFPTPSISDFEIPTSNIRRIICSTSGGFPEPHLSWLENGEELNAINTTVSQDPETELYAVSSKLDFNMTTNHSFMCLIKYGHLRVNQTFNWNTTKQEHFPDNLLPSWAITLISVNGIFVICCLTYCFAPRCRERRRNERLRRESVRPV
-- reply 15505

-- ask Given the molecule T13R/Q33R/E35D/M47L/V68M (protein, CD80 v381 ECD) VIHVTKEVKEVARLSCGHNVSVEELAQTRIYWRKDKKMVLTMMSGDLNIWPEYKNRTIFDITNNLSIMILALRPSDEGTYECVVLKYEKDAFKREHLAEVTLSVKADFPTPSISDFETPTSNIRRIICSTSGGFPEPHLSWLENGEELNAINTTVSQDPETELYAVSSKLDFNMTTNHSFMCLIKYGHLRVNQTFNWNTTKQEHFPDN , what is its reported CTLA4 MFI at 33.3 nM?
-- reply 20738
